pIC50: −log10 of the molar value.
pIC50 values recorded for UniProt P13621

Example entries and their recorded answers appear below.
compound	pIC50
O=C(/N=C(\Nc1cccc(NS(=O)(=O)CC(F)(F)F)n1)NC(C1CC1)C1CC1)c1ccc(Cl)cc1 [Compound A-127]	> 5.00
CS(=O)(=O)Nc1cccc(N/C(=N\C(=O)c2ccc(Cl)c(F)c2)NCc2ccc(F)c(Cl)c2)n1 [Compound A-121]	> 5.00
O=C(/N=C(\Nc1cccc(O)n1)NC1CCOCC1)c1ccc(F)c(F)c1 [Compound A-98]	< 5.00
O=C(N=C(Nc1cc(F)cc(Cl)c1)Nc1cccc(NS(=O)(=O)c2cccnc2)n1)c1ccc(Cl)cc1 [Compound A-147]	> 5.00

Asked: // returns reported pIC50 for input COc1cccc(N/C(=N\C(=O)c2ccc(C(F)(F)F)cc2)NCc2ccc(Cl)c(F)c2)n1 [Compound A-66]
Given back: < 5.00

Asked: Thanks! And O=C(/N=C(/NCc1ccccc1Cl)Nc1cccc(O)n1)c1ccc(F)c(F)c1 [Compound A-71] ?
Given back: > 5.00

Asked: Thanks! And O=C(/N=C(/NCc1cccc(Cl)c1)Nc1cccc(O)n1)c1ccc(F)c(F)c1 [Compound A-72] ?
Given back: > 5.00

Asked: Thanks! And CC(C)(C)N/C(=N\C(=O)c1ccc(F)c(F)c1)Nc1cccc(O)n1 [Compound A-45] ?
Given back: > 5.00
